# assay system: IDO protease in HEK293 cell (Homo sapiens (Human))
# assay: Inhibitory activity of IDO protease in HEK293 cell transfected with human IDO gene
# condition details: HEK293 cells transfected with pcDNA3.1(+)-hIDO, compounds incubated for 5 hr
quantity: IC50 (nM)

{"compound": "NS(=O)(=O)NCC1CCC(CNc2nonc2C(=NO)Nc2ccc(F)c(Br)c2)CC1 (stereo not drawn)", "reported value": 14}
{"compound": "NS(=O)(=O)NCCC1CCCC(Nc2nonc2C(=NO)Nc2ccc(F)c(Br)c2)C1 (stereo not drawn)", "reported value": 52}
{"compound": "NS(=O)(=O)NC[C@H]1CC[C@H](Nc2nonc2C(=NO)Nc2ccc(F)c(Br)c2)CC1", "reported value": 8}

[1] NS(=O)(=O)NC1CCCC(CCNc2nonc2C(=NO)Nc2ccc(F)c(Br)c2)C1 (stereo not drawn)
[2] NS(=O)(=O)N[C@H]1CC[C@H](Nc2nonc2C(=NO)Nc2ccc(F)c(Br)c2)CC1
[3] NS(=O)(=O)N[C@H]1CC[C@@H](Nc2nonc2C(=NO)Nc2ccc(F)c(Br)c2)CC1
[4] NS(=O)(=O)NC1CCN(Nc2nonc2C(=NO)Nc2ccc(F)c(Br)c2)CC1
[5] NS(=O)(=O)NC1CCC(Nc2nonc2/C(=N/O)Nc2ccc(F)c(Br)c2)CC1 (stereo not drawn)
Arrange these 5 compounds in increasing order of IC50. Give your ranking as a list of the labels in the requested order.
2, 3, 5, 1, 4
(2: 3 nM, 3: 5 nM, 5: 10 nM, 1: 23 nM, 4: 37 nM)

[A] NS(=O)(=O)NCCC1CCC(CNc2nonc2C(=NO)Nc2ccc(F)c(Br)c2)CC1 (stereo not drawn)
[B] NS(=O)(=O)NC1CCC(CCNc2nonc2C(=NO)Nc2ccc(F)c(Br)c2)CC1 (stereo not drawn)
[C] NS(=O)(=O)N[C@H]1CC[C@H](CNc2nonc2C(=NO)Nc2ccc(F)c(Br)c2)CC1
Ranking field: IC50; order: falling. Please write the labels in the order that was asked for.
B, A, C
(B: 36 nM, A: 21 nM, C: 13 nM)

[P] NS(=O)(=O)NC1CCCC(CNc2nonc2C(=NO)Nc2ccc(F)c(Br)c2)C1 (stereo not drawn)
[Q] NS(=O)(=O)NCCC1CCC(CCNc2nonc2C(=NO)Nc2ccc(F)c(Br)c2)CC1 (stereo not drawn)
Field: lower recorded IC50 (choose P or Q ) Returns: label corresponding to the selected item.
P

[P] NS(=O)(=O)NCC1CCC(CCNc2nonc2C(=NO)Nc2ccc(F)c(Br)c2)CC1 (stereo not drawn)
[Q] NS(=O)(=O)NCC1CCCC(Nc2nonc2C(=NO)Nc2ccc(F)c(Br)c2)C1 (stereo not drawn)
// task: argmin of IC50 over [ P , Q ] Reply briefly: the label of your chosen item.
Q

----------
# assay system: human IDO1 protease (Homo sapiens (Human))
# Sequence (P14902 whole entry): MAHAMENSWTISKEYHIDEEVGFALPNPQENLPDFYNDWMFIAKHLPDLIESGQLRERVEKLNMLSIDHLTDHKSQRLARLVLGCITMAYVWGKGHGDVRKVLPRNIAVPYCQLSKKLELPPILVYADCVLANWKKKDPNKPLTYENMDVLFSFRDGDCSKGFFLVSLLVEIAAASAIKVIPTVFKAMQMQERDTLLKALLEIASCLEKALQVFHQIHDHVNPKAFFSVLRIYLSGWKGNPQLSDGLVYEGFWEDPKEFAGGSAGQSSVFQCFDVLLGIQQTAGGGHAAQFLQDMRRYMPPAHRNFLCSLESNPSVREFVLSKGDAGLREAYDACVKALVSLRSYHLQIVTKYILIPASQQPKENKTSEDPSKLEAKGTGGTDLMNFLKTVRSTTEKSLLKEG
# assay: Inhibitory activity against human IDO1 protease (recombinant enzyme, kynurenine absorbance at 480 nm)
# condition details: recombinant human IDO1, L-Tryptophan substrate, 30 min at 37° C.
pIC50: −log10 of the molar value.
quantity: pIC50

Below, 3 compounds whose answers are already recorded.
{"compound": "NS(=O)(=O)NCCC1CCCC(Nc2nonc2C(=NO)Nc2ccc(F)c(Br)c2)C1 (centres unmarked) [Example 10]", "pIC50": 7.23}
{"compound": "NS(=O)(=O)NC1CCCC(CCNc2nonc2C(=NO)Nc2ccc(F)c(Br)c2)C1 (centres unmarked) [Example 12]", "pIC50": 7.22}
{"compound": "NS(=O)(=O)NCCC1CCC(CNc2nonc2C(=NO)Nc2ccc(F)c(Br)c2)CC1 (centres unmarked) [Example 7]", "pIC50": 7.13}

[I] NS(=O)(=O)NCC1CCC(CCNc2nonc2C(=NO)Nc2ccc(F)c(Br)c2)CC1 (centres unmarked) [Example 6]
[II] NS(=O)(=O)NC1CCC(Nc2nonc2/C(=N/O)Nc2ccc(F)c(Br)c2)CC1 (centres unmarked) [Example 17]
Given the two records I and II , choose the one whose pIC50 value is lower. The response must carry the label of the picked entry.
I
(I: 7.32, II: 7.82)

----------
# assay system: IDO protease in HEK293 cell (Homo sapiens (Human))
# assay: Inhibitory activity of IDO protease in HEK293 cell transfected with human IDO gene
# condition details: HEK293 cells transfected with pcDNA3.1(+)-hIDO, compounds incubated for 5 hr
pIC50: −log10 of the molar value.
quantity: pIC50

{"molecule": "NS(=O)(=O)NC1CCC(Nc2nonc2C(=NO)Nc2ccc(F)c(Br)c2)C1 (stereo not drawn) [Example 16]", "assay system": "IDO protease in HEK293 cell (Homo sapiens (Human))", "quantity": "pIC50", "reported value": 7.38}
{"molecule": "NS(=O)(=O)NCC1CCC(Nc2nonc2C(=NO)Nc2ccc(F)c(Br)c2)C1 (stereo not drawn) [Example 14]", "assay system": "IDO protease in HEK293 cell (Homo sapiens (Human))", "quantity": "pIC50", "reported value": 7.32}
{"molecule": "NS(=O)(=O)NCC[C@H]1CC[C@H](Nc2nonc2C(=NO)Nc2ccc(F)c(Br)c2)CC1 [Example 2]", "assay system": "IDO protease in HEK293 cell (Homo sapiens (Human))", "quantity": "pIC50", "reported value": 7.44}
